protocol_notes: Selectivity ratio of IC50 value against D-2 receptor to that of 5-HT1A receptor.
readout: Selectivity

I = COc1ccccc1N1CCN(CC/C=C2\CCCc3ccccc32)CC1
II = COc1ccccc1N1CCN(CCCC2=CCCc3c(OC)cccc32)CC1
In terms of reported Selectivity, does I or II have the smaller number? Reply briefly: the label of your chosen item. II
(II: 2, I: 6.9)

###

measured_on: Serotonin 2 (5-HT2) receptor (Rattus norvegicus, UniProt P30994+P08909+P14842)
protocol_notes: In vitro binding affinity measured on serotonin 5-hydroxytryptamine 2 receptor using [3H]ketanserin as radioligand.
Format: protein assay
readout: IC50 (µM)

> print(dat)
                                   molecule                               measured.on  readout  unit  measurement
1  COc1ccccc1N1CCN(CCCC2CCCc3c(OC)cccc32)CC1 (stereo unspecified)  Serotonin 2 (5-HT2) receptor (Rattus norvegicus, UniProt P30994+P08909+P14842)     IC50    µM        0.358

1 = COc1ccc2c(c1)C(CCCCN1CCN(c3ccccc3OC)CC1)CCC2 (stereo unspecified)
2 = COc1cccc2c1CCC=C2CCCN1CCN(c2ccccn2)CC1
3 = COc1ccc2c(c1)C(SCCN1CCN(c3ccccc3OC)CC1)CCC2 (stereo unspecified)
Parameters: sort_field (IC50), sort_dir (desc). # answer = labels listed in requested order 1, 2, 3
(1: 0.329 µM, 2: 0.205 µM, 3: 0.111 µM)

I = COc1ccc2c(c1)C(CCCN1CCN(c3ccccn3)CC1)CCC2 (stereo unspecified)
II = COc1ccc2c(c1)C(CCCN1CCN(c3ccccn3)CC1)=CCC2
III = COc1cccc2c1CCC/C2=C\CCN1CCN(c2ccccn2)CC1
Please give the order of these molecules when sorted by IC50, largest value leading. Put the labels in the order asked and list them. III, I, II
(III: 0.417 µM, I: 0.288 µM, II: 0.146 µM)

A = COc1ccc2c(c1)C(CCCN1CCN(c3ccccc3OC)CC1)=CCC2
B = COc1cccc2c1CCCC2CCCN1CCN(c2ccccc2)CC1 (stereo unspecified)
# argmax over IC50 for candidates A and B Response format: the label of the selected entry. A

###

measured_on: D(2) dopamine receptor (Rattus norvegicus, UniProt P61169)
Sequence (P61169 whole entry): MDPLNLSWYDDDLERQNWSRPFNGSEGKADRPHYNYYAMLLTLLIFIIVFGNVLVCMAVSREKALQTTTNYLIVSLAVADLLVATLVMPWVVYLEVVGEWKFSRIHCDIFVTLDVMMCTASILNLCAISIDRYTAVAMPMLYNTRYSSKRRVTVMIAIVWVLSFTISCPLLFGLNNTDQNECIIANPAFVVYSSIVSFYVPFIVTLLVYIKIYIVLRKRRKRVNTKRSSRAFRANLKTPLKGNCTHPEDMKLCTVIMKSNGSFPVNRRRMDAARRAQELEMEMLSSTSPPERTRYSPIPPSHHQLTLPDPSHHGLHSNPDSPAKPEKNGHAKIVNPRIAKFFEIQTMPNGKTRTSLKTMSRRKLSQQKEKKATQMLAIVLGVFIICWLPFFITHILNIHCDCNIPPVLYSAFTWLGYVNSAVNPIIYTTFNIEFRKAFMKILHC
protocol_notes: The compound was evaluated for the binding affinity towards Dopamine receptor D2 binding site using [3H]spiroperidol.
readout: pIC50
Convention used: pIC50 is expressed as -log10 of the molar concentration.

Sure, the documented pIC50 for COc1ccc2c(c1)C(NCCN1CCN(c3ccccc3OC)CC1)CCC2 (stereo unspecified) is 5.92

###

measured_on: Adrenergic receptor alpha-1 (Rattus norvegicus, UniProt P15823+P23944+P43140)
protocol_notes: In vitro binding affinity measured on alpha-1 adrenergic receptor using [3H]prazosin as radioligand.
Assay type: protein assay
readout: IC50 (nM)

> print(dat)
                                   compound  readout  measurement
1  COc1ccccc1N1CCN(CCSC2CCCc3c(OC)cccc32)CC1 (configuration not stated)     IC50          120

a = COc1ccc2c(c1)C(CCCCN1CCN(c3ccccc3OC)CC1)=CCC2
b = COc1ccccc1N1CCN(CCCCC2CCCc3c(OC)cccc32)CC1 (configuration not stated)
Hi team, can someone confirm which has the larger IC50: a or b ? Thanks. Reply with the label of the item you choose. b
(b: 78.3 nM, a: 15.3 nM)

I = COc1ccccc1N1CCN(CCCC2CCCc3ccccc32)CC1 (configuration not stated)
II = COc1ccccc1N1CCN(CCCCC2=CCCc3c(OC)cccc32)CC1
III = COc1ccccc1N1CCN(CCNC2CCCc3c(OC)cccc32)CC1 (configuration not stated)
IV = COc1cccc2c1CCC=C2CCCN1CCN(c2cccc(C(F)(F)F)c2)CC1
V = COc1ccc2c(c1)C(CCCN1CCN(c3ccccc3OC)CC1)=CCC2
Sort the 5 compounds by IC50; largest first, smallest last. Answer format: list of labels, ordered as asked. IV, III, II, V, I

a = COc1cccc2c1CCC/C2=C\CCN1CCN(c2ccccn2)CC1
b = COc1ccc2c(c1)C(CCCN1CCN(c3cccc(C(F)(F)F)c3)CC1)CCC2 (configuration not stated)
Pick one, a or b : lowest reported IC50. Record your answer as the label of the chosen record. a
(a: 72.2 nM, b: 2930 nM)

1 = COc1ccc2c(c1)C(NCCN1CCN(c3ccccc3OC)CC1)CCC2 (configuration not stated)
2 = COc1ccccc1N1CCN(CCCC2=CCCc3c(OC)cccc32)CC1
Field: entry with larger IC50 (options 1 / 2 ). Refer to your chosen item by its label in the answer. 1
(1: 1960 nM, 2: 32.3 nM)

###

measured_on: Serotonin 2 (5-HT2) receptor (Rattus norvegicus, UniProt P30994+P08909+P14842)
protocol_notes: In vitro binding affinity measured on serotonin 5-hydroxytryptamine 2 receptor using [3H]ketanserin as radioligand.
Type: protein assay
readout: IC50 (µM)

Sample records with IC50:
> print(dat)
                                   compound  readout  measurement
1  COc1cccc2c1CCC=C2CCCN1CCN(c2cccc(C(F)(F)F)c2)CC1     IC50         2.37
2  COc1ccc2c(c1)C(CCCCN1CCN(c3ccccc3OC)CC1)=CCC2     IC50        0.209
3  COc1ccccc1N1CCN(CCCC2CCCc3ccccc32)CC1 (configuration not stated)     IC50        0.155
4  COc1ccc2c(c1)C(CCCN1CCN(c3ccccc3)CC1)=CCC2     IC50        0.119
5  COc1ccccc1N1CCN(CCCC2=CCCc3c(OC)cccc32)CC1     IC50         0.77
6  COc1ccccc1N1CCN(CCCC2CCCc3ccsc32)CC1 (configuration not stated)     IC50        0.147

a = COc1ccc2c(c1)C(CCCN1CCN(c3ccccc3OC)CC1)CCC2 (configuration not stated)
b = COc1ccccc1N1CCN(CCNC2CCCc3c(OC)cccc32)CC1 (configuration not stated)
c = COc1ccc2c(c1)C(CCCN1CCN(c3cccc(C(F)(F)F)c3)CC1)CCC2 (configuration not stated)
d = COc1ccccc1N1CCN(CC/C=C2\CCCc3c(OC)cccc32)CC1
# sort list by recorded IC50, greatest to least I'd appreciate it if you listed the labels in the requested order. b, d, c, a
(b: 3.34 µM, d: 0.667 µM, c: 0.391 µM, a: 0.22 µM)

A = COc1ccc2c(c1)C(CCCN1CCN(c3cccc(C(F)(F)F)c3)CC1)=CCC2
B = COc1cccc2c1CCCC2CCCN1CCN(c2ccccn2)CC1 (configuration not stated)
When their IC50 values are compared, which is larger, A or B ? Use the label to indicate which entry you chose. A

###

Species: Cavia porcellus
protocol_notes: Selectivity as the ratio of IC50 value against sigma receptor to that of 5-HT1A receptor.
readout: Selectivity

1 = COc1ccccc1N1CCN(CCNC2CCCc3c(OC)cccc32)CC1 (stereo not drawn)
2 = COc1ccc2c(c1)C(CCCN1CCN(c3ccccn3)CC1)CCC2 (stereo not drawn)
3 = COc1ccc2c(c1)C(CCCN1CCN(c3ccccc3OC)CC1)=CCC2
Rank the items above by Selectivity, largest value first. Answer format: list of labels, ordered as asked. 3, 2, 1

###

measured_on: Adrenergic receptor alpha-1 (Rattus norvegicus, UniProt P15823+P23944+P43140)
protocol_notes: In vitro binding affinity measured on alpha-1 adrenergic receptor using [3H]prazosin as radioligand.
Format: protein assay
readout: IC50 (nM)

> print(dat)
                                   compound  readout  measurement
1  COc1ccccc1N1CCN(CCCC2CCCc3ccsc32)CC1 (stereo unspecified)     IC50         1.26
2  COc1ccc2c(c1)C(CCCN1CCN(c3cccc(C(F)(F)F)c3)CC1)=CCC2     IC50         3070
3  COc1ccc2c(c1)C(CCCN1CCN(c3ccccn3)CC1)CCC2 (stereo unspecified)     IC50          261
4  COc1ccccc1N1CCN(CCCC2CCCc3c(OC)cccc32)CC1 (stereo unspecified)     IC50         1.94
5  COc1cccc2c1CCCC2CCCN1CCN(c2ccccn2)CC1 (stereo unspecified)     IC50         31.4
6  COc1ccc2c(c1)C(CCCN1CCN(c3ccccn3)CC1)=CCC2     IC50          152

P = COc1cccc2c1CCC=C2CCCN1CCN(c2ccccn2)CC1
Q = COc1ccc2c(c1)C(CCCN1CCN(c3ccccc3)CC1)CCC2 (stereo unspecified)
R = COc1ccc2c(c1)C(CCCCN1CCN(c3ccccc3OC)CC1)CCC2 (stereo unspecified)
S = COc1ccccc1N1CCN(CC/C=C2\CCCc3ccccc32)CC1
T = COc1ccc2c(c1)C(CCCN1CCN(c3ccccc3OC)CC1)CCC2 (stereo unspecified)
Please give the order of these compounds when sorted by IC50, largest value leading. The labels, placed in the requested order, form the answer. Q, P, R, T, S
(Q: 184 nM, P: 123 nM, R: 78.5 nM, T: 43.2 nM, S: 3.6 nM)
